target: furin, P09958; assay: furin cleavage Z-score vs untreated control; higher = more cleavage, active = 3.5 or more, inactive = 1 or less, 8 variable residues between constant flanks; conditions: 7.5 min;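 also: purified furin at 1:10 enzyme:substrate in 50 mM HEPES pH 7.5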
Sequence (P09958 whole entry): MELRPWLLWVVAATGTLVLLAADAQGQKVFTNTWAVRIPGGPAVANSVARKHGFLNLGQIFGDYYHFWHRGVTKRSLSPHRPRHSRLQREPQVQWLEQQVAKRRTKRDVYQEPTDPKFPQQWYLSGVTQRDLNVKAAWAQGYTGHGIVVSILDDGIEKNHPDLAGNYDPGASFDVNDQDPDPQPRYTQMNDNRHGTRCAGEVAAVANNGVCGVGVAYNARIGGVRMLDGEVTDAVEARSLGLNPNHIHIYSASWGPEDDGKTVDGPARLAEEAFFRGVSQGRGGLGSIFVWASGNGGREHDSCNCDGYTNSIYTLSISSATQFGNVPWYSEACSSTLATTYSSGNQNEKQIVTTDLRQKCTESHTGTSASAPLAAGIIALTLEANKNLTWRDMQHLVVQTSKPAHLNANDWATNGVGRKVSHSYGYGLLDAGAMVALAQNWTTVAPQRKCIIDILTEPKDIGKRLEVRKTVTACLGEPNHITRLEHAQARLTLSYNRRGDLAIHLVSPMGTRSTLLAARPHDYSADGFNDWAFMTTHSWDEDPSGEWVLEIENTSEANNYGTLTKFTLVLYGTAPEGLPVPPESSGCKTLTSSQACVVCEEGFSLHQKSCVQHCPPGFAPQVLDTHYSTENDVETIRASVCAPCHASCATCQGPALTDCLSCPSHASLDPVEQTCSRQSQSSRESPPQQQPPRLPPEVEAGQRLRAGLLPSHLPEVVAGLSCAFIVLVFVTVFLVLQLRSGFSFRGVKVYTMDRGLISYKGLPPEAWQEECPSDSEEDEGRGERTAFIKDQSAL
Some of the results follow. No count for the full screen is at hand.
metric: furin cleavage Z-score
Just the number.

query: What value of furin cleavage Z-score has been recorded for this entry: CANEMEECSQAGNASASA [HC1801]
result: -0.962

query: What does the record list as furin cleavage Z-score for CATTPCYGSWAGNASASA [HC77] ?
result: 0.0798

query: I would be grateful if you could share the reported furin cleavage Z-score for CAEMEECSQHAGNASASA [HC1014] .
result: -0.42

query: What value of measured furin cleavage Z-score is listed for CAVQCCSMSYAGNASASA [HC2022] ?
result: -0.966

query: Can you look up the measured furin cleavage Z-score of CADQEVVTSTAGNASASA [HC2302] for me?
result: -0.902

query: Given the sequence CASDGSWSTVAGNASASA [HC1361] , what is its reported furin cleavage Z-score?
result: 1.87

query: # furin cleavage Z-score lookup, item CALTHIDAHFAGNASASA [HC943]
result: -1.16
